MEASUREMENT_PROTOCOL: gradient 5% acetonitrile 3 min, to 50% in 2 min, to 85% in 15 min, held 3 min, 100 µL/min
CONDITIONS_USED: column: Zorbax Extend-C18 2.1 x 50 mm; eluents: water / acetonitrile, 0.1% formic acid
Record Yes whenever RP-LC retention time is at 800 s or higher; record No when lower.

INSERT INTO assay_data (compound, class) VALUES
  ('CCn1nnc2ccc(-c3noc(-c4ccccc4)n3)cc21', 'Yes'),
  ('COc1cc2ccccc2cc1C(=O)Nc1nccs1', 'Yes'),
  ('O=S(=O)(c1ccc2c(c1)CCC2)N1CCCC1c1nc(-c2cccc(Cl)c2)no1 (centres undefined)', 'Yes'),
  ('Cc1ccc(CNC(=O)c2cc3c(s2)CCN(C(=O)c2ccc(F)cc2)C3)o1', 'Yes');

Inquiry: Decide: is the reported value of RP-LC retention time for "CCn1ccc2ccc(CCC(=O)N3CCN(c4ccccc4)CC3)cc21" equal to or greater than 800 s?
Reply text: Yes

Inquiry: Can CCOc1ccc(S(=O)(=O)N2CCCC(C(=O)NCc3ccncc3)C2)cc1C (centres undefined) be said to have RP-LC retention time at or above 800 s?
Reply text: No

Inquiry: Check if RP-LC retention time >= 800 s (inclusive). Item: "CCn1cc(C(=O)Nc2cccc(C)c2)c2cccnc21"
Reply text: Yes

Inquiry: hey, is RP-LC retention time for this one >= 800 s? "CCN(CC)c1cc(CNC(=O)Nc2cc(Cl)c(OC)cc2OC)ccn1"
Reply text: No

Inquiry: Does the reported RP-LC retention time for Cc1cc(C2CCCN2C(=O)c2c(F)cccc2Cl)on1 (centres undefined) fall at or above the 800 s mark?
Reply text: No

---

MEASUREMENT_PROTOCOL: gradient 5% acetonitrile 3 min, to 50% in 2 min, to 85% in 15 min, held 3 min, 100 µL/min
CONDITIONS_USED: column: Zorbax Extend-C18 2.1 x 50 mm; eluents: water / acetonitrile, 0.1% formic acid
Could you label it fulfilled if measured RP-LC retention time is 800 s or higher, and not fulfilled otherwise?

Inquiry: Hello, I need to know if "COc1ccccc1N1CCN(c2nnc(-c3nnc(C)o3)c3ccccc23)CC1" has measured RP-LC retention time not below 800 s. Thanks!
Reply text: fulfilled

Inquiry: Check the entry "CCCn1cc(S(=O)(=O)Nc2ccccc2OC)c2cccnc21" : does RP-LC retention time equal or exceed 800 s?
Reply text: fulfilled

Inquiry: Hello, I need to know if "COc1cc(NC(=O)N2CCC(CN3CCc4ccccc4C3)CC2)cc(OC)c1OC" has measured RP-LC retention time not below 800 s. Thanks!
Reply text: not fulfilled

Inquiry: Would you say "CCc1ccc(-c2nc(-c3ccc(-n4ccnc4)nc3)no2)cc1" shows RP-LC retention time at minimum 800 s?
Reply text: fulfilled

Inquiry: Determine whether measured RP-LC retention time meets or exceeds 800 s for "O=C(NCc1ccc(F)cc1)c1ccc2c(c1)nc1n2CCN(c2ccccc2)C1=O"
Reply text: not fulfilled

---

MEASUREMENT_PROTOCOL: gradient 5% acetonitrile 3 min, to 50% in 2 min, to 85% in 15 min, held 3 min, 100 µL/min
CONDITIONS_USED: column: Zorbax Extend-C18 2.1 x 50 mm; eluents: water / acetonitrile, 0.1% formic acid
The entries below come with measured RP-LC retention time values attached.
Could you give me the number in s? Just the number is fine.

INSERT INTO results (compound, readout, result_units, endpoint_result) VALUES
  ('COc1ccccc1-c1nc(Cn2nnc(-c3nc(-c4ccc(C)c(C)c4)no3)c2C)c(C)o1', 'RP-LC retention time', 's', 1240),
  ('CC(C)N1C(=O)c2cccnc2Sc2cc(NC(=O)c3cc(Cl)ccc3F)ccc21', 'RP-LC retention time', 's', 973),
  ('O=C(CC1CCN(C(=O)Nc2ccc(F)cc2)CC1)N1CCCCC1', 'RP-LC retention time', 's', 740),
  ('Cc1cc(C)cc(-c2nnc(Cc3nc(-c4ccc(F)cc4)no3)o2)c1', 'RP-LC retention time', 's', 1120),
  ('O=C(Cn1c(C(F)(F)F)nc2cc3c(cc21)OCCO3)Nc1ccccc1', 'RP-LC retention time', 's', 867);

Inquiry: Sample "CCOC(=O)CNC(=O)N1CCC(N2CCN(Cc3cccc(C)c3)C2=O)CC1" — what was its RP-LC retention time?
Reply text: 725

Inquiry: Given the entry "O=C(NCCc1csc(C2CCN(C(=O)C3CCC3)CC2)n1)C1CCC1" , report its measured RP-LC retention time.
Reply text: 703

Inquiry: So what does the record say about RP-LC retention time for "COc1ccc(C)cc1NC(=O)N1C[C@@H]2C[C@H](NS(C)(=O)=O)[C@H]1C2" ?
Reply text: 717

Inquiry: Consider the compound COc1ccc(NC(=O)C2CC(=O)N(CCc3c[nH]c4ccc(Cl)cc34)C2)cc1 (centres undefined) and give its measured RP-LC retention time.
Reply text: 818

---

MEASUREMENT_PROTOCOL: gradient 5% acetonitrile 3 min, to 50% in 2 min, to 85% in 15 min, held 3 min, 100 µL/min
CONDITIONS_USED: column: Zorbax Extend-C18 2.1 x 50 mm; eluents: water / acetonitrile, 0.1% formic acid
READOUT: RP-LC retention time (s)
Entry rule: numbers only, all in s.

// solved cases for RP-LC retention time follow
INSERT INTO results (compound, endpoint_result) VALUES
  ('O=C(Cn1c(-c2ccc(F)cc2)nc2ccccc21)N1CCCCC1', 675),
  ('COCCN1C(=O)[C@H]2CN(Cc3ccc(C)c(C)c3)C[C@H]2C1=O', 577),
  ('Cc1cc(N2CCN(S(=O)(=O)c3cccc(F)c3)CC2)nc(NC2CCCCC2)n1', 797),
  ('CCCN(C)c1nccn2c(=O)n(CC(=O)Nc3ccc(C)cc3Br)nc12', 743),
  ('CC(C)N(CC[C@H](c1ccccc1)c1cc(CO)ccc1O)C(C)C', 678),
  ('COc1cc2c(cc1O)CCC1C2CC[C@@]2(C)C1CC[C@@H]2O (some centres undefined)', 836);

Inquiry: So what's the measured RP-LC retention time for this one? "Cc1ccccc1NC(=O)C1CCN(S(=O)(=O)c2c(C)[nH]c(C)c2C(=O)N2CCCC2)CC1"
Reply text: 675

Inquiry: Name the reported RP-LC retention time value associated with the compound COc1ccc(C(=O)N2CCC3(C2)C(=O)Nc2ccccc23)cc1 (centres undefined)
Reply text: 683

Inquiry: Entry under review: "Cc1cc(NC(=O)Cn2ccn3nc(-c4ccc(F)cc4)c(CO)c3c2=O)no1" . Reported RP-LC retention time?
Reply text: 727

---

MEASUREMENT_PROTOCOL: gradient 5% acetonitrile 3 min, to 50% in 2 min, to 85% in 15 min, held 3 min, 100 µL/min
CONDITIONS_USED: column: Zorbax Extend-C18 2.1 x 50 mm; eluents: water / acetonitrile, 0.1% formic acid
READOUT: RP-LC retention time

INSERT INTO assay_data (compound, readout, endpoint_result) VALUES
  ('COc1ccc(-c2nnc(-c3ccc(C)c(S(=O)(=O)N4CCCCC4)c3)o2)cc1', 'RP-LC retention time', '1120 s'),
  ('Cc1ccc(C2Cn3nnc(-c4nc(-c5cccnc5)no4)c3CO2)c(C)c1 (stereo not given)', 'RP-LC retention time', '1040 s'),
  ('CCC(C)NC(=O)CCn1c(=O)c2ccccc2n2c(=O)n(Cc3ccccc3)nc12 (stereo not given)', 'RP-LC retention time', '856 s'),
  ('CN(C)c1ccc2c(c1)CN(C(=O)Cn1c(=O)oc3ccccc31)CCO2', 'RP-LC retention time', '621 s');

Let us move to another entry and its RP-LC retention time.
Inquiry: For Cc1ccc(Cl)cc1N1CCN(C(=O)C2CC(=O)c3ccccc32)CC1 (stereo not given) , what is its reported RP-LC retention time?
Reply text: 922 s

---

MEASUREMENT_PROTOCOL: gradient 5% acetonitrile 3 min, to 50% in 2 min, to 85% in 15 min, held 3 min, 100 µL/min
CONDITIONS_USED: column: Zorbax Extend-C18 2.1 x 50 mm; eluents: water / acetonitrile, 0.1% formic acid
READOUT: RP-LC retention time (s)
I only need the number, in s, no unit after it.

Below: 5 molecules and their reported RP-LC retention time.
INSERT INTO results (molecule, endpoint_result) VALUES
  ('CCc1nn2c(CNC(=O)c3ccc(C)c(C)c3)c(-c3ccccc3)nc2s1', 983),
  ('Cc1nc(SCC(=O)O)n[nH]1', 765),
  ('O=C(NCc1ccco1)C1CN(C(=O)c2ccc(F)c(F)c2)C1', 663),
  ('CC1=C(c2ccc(C)cc2)S(=O)(=O)N=C1N1CCCN(C(=O)NC(C)(C)C)CC1', 836),
  ('Cc1nnc(C2CCCN(C(=O)c3nc4ccccc4s3)C2)s1 (centres undefined)', 736);

Inquiry: Requested read-out: RP-LC retention time. Entry: "CCCn1cnc2cc(CNC(=O)COc3ccc(Cl)cc3C)ccc21"
Reply text: 692

Inquiry: So what does the record say about RP-LC retention time for "CCCCN1CCN(C(=O)c2cn3cc(Cl)ccc3n2)CC1" ?
Reply text: 589

Inquiry: Find the recorded RP-LC retention time belonging to CCOc1ccc(NC(=O)C2CCCN(S(=O)(=O)c3cc(-c4noc(C)n4)cs3)C2)cc1 (centres undefined) and report it.
Reply text: 982

Inquiry: Find the recorded RP-LC retention time belonging to "O=C(Nc1ccc(-c2cn3cccnc3n2)cc1)c1ccc(F)c(F)c1" and report it.
Reply text: 647

Inquiry: # get_value(readout='RP-LC retention time', item= O=C(NC1CCN(c2cc(-c3cccs3)[nH]n2)C1)c1cccc(F)c1 (centres undefined) )
Reply text: 715

Inquiry: What value of measured RP-LC retention time is listed for "Cc1cc(C)cc(C(=O)N2CCC3(CC2)NC(=O)c2ccc(F)cc2N3C)c1" ?
Reply text: 787

Inquiry: Dear colleague, I am looking for the recorded RP-LC retention time of the following molecule: "O=C(CN1CCN(CC(=O)c2cccs2)CC1)Nc1cc(C(F)(F)F)ccc1Cl"
Reply text: 625

Inquiry: Could you share which RP-LC retention time value was measured for Cc1ccsc1C(=O)N1CCC(C2CCN(S(C)(=O)=O)CC2)C1 (centres undefined) ?
Reply text: 626

Inquiry: Name the reported RP-LC retention time value associated with the molecule "Cc1ccc(NS(=O)(=O)c2cc3n(c2)CCN(C)C3=O)cc1F"
Reply text: 716

Inquiry: I'd like to know its RP-LC retention time. The molecule in question is "CCCOC(=O)c1cnc2nc(C)ccc2c1NCc1ccc2c(c1)OCO2"
Reply text: 734

Inquiry: Any idea what RP-LC retention time was measured for "COC(=O)c1ccc(-c2nc3cnccn3c2Nc2ccc(Cl)cc2)cc1" ?
Reply text: 953

Inquiry: Form field: reported RP-LC retention time of Cc1cc2c(cc1S(=O)(=O)N1CCCC1C(=O)Nc1ccc(C(C)C)cc1)OC(C)C(=O)N2 (centres undefined)
Reply text: 916

Inquiry: Reported RP-LC retention time, molecule COc1cc(C(=O)NC2CCCNC2)cc(OC)c1OC (centres undefined) : ____
Reply text: 621

Inquiry: Dear colleague, I am looking for the recorded RP-LC retention time of the following molecule: "CCN1C(=O)c2cccnc2Sc2cc(NC(=O)C3CCC3)ccc21"
Reply text: 745

Inquiry: Param item = "O=C(O)c1ccc(N2CCN(c3ccccn3)CC2)c(NS(=O)(=O)c2cc(F)ccc2F)c1" ; retrieve measured RP-LC retention time.
Reply text: 640

Inquiry: Consider the molecule O=C1COc2ccc(NC(=O)c3cc(C4CC4)n(C4CCS(=O)(=O)C4)n3)cc2N1 (centres undefined) and give its measured RP-LC retention time.
Reply text: 652

Inquiry: Any idea what RP-LC retention time was measured for "COc1ccc(OC)c(CNC(=O)c2cc3c(=O)n(C)ccc3n2C)c1" ?
Reply text: 692

Inquiry: Given "Cc1ccc(Nc2c(-c3cc(Br)ccc3F)nc3cc(C)ccn23)cc1" , state its recorded RP-LC retention time.
Reply text: 818

Inquiry: Report RP-LC retention time for "Cc1sc(-c2cc(C(F)(F)F)on2)cc1S(=O)(=O)N1CCC2(CC1)OCCO2" please.
Reply text: 1120

Inquiry: Quick one: RP-LC retention time for O=C1Nc2cc(C(=O)N3CCN(c4cccc(Cl)c4)CC3)ccc2N2CCCCC12 (centres undefined) ?
Reply text: 975

Inquiry: # input molecule: "Cc1noc(-c2cc(=O)n(CC(=O)Nc3cccc(C)c3C)c3ccccc23)n1" ; wanted: its RP-LC retention time
Reply text: 890

Inquiry: # get_value(readout='RP-LC retention time', item= "O=C1COc2ccccc2N1Cc1nc(-c2ccc(Cl)cc2)no1" )
Reply text: 1070
